# MIC listing for each entry below
tested on: Pseudomonas aeruginosa IFO 3445; experiment: Antibacterial activity, agar-dilution MIC, organism No. 15; format: cell-based; conditions: Pseudomonas aeruginosa, IFO3445; Organism No. 15, bouillon-agar; read-out: Minimum Inhibitory Concentration
endpoint: MIC

{"compound": "[C-]#[N+]C12CC3(/C=C/C(=O)Nc4cccc(O)c4)OC3C1O2 (stereo not drawn)", "endpoint": "MIC", "assayValue": "> 200 µg/mL"}
{"compound": "[C-]#[N+]C12CC3(/C=C/C(=O)N[C@@H](CC(=O)OC)C(=O)OC)OC3C1O2 (stereo partly drawn)", "endpoint": "MIC", "assayValue": "> 200 µg/mL"}
{"compound": "[C-]#[N+]C12CC3(/C=C/C(=O)Nc4ccc(S(N)(=O)=O)cc4)OC3C1O2 (stereo not drawn)", "endpoint": "MIC", "assayValue": "> 200 µg/mL"}
{"compound": "[C-]#[N+]C12CC3(/C=C/C(=O)OCc4cc([N+](=O)[O-])ccc4OC)OC3C1O2 (stereo not drawn)", "endpoint": "MIC", "assayValue": "> 200 µg/mL"}
{"compound": "[C-]#[N+]C12CC3(/C=C/C(=O)N4CCCC4)OC3C1O2 (stereo not drawn)", "endpoint": "MIC", "assayValue": "> 200 µg/mL"}
{"compound": "[C-]#[N+]C12CC3(/C=C/C(=O)Nc4ccccc4C(N)=O)OC3C1O2 (stereo not drawn)", "endpoint": "MIC", "assayValue": "> 200 µg/mL"}
{"compound": "[C-]#[N+]C12CC3(/C=C/C(=O)ON4C(=O)CCC4=O)OC3C1O2 (stereo not drawn)", "endpoint": "MIC", "assayValue": "> 200 µg/mL"}
{"compound": "[C-]#[N+]C12CC3(/C=C/C(=O)Nc4ccc(C(F)(F)F)cc4)OC3C1O2 (stereo not drawn)", "endpoint": "MIC", "assayValue": "> 200 µg/mL"}
{"compound": "[C-]#[N+]C12CC3(/C=C/C(=O)Nc4ccc(OC(C)C)cc4)OC3C1O2 (stereo not drawn)", "endpoint": "MIC", "assayValue": "> 200 µg/mL"}
{"compound": "[C-]#[N+]C12CC3(/C=C/C(=O)Nc4ccccc4)OC3C1O2 (stereo not drawn)", "endpoint": "MIC", "assayValue": "> 200 µg/mL"}
{"compound": "[C-]#[N+]C12CC3(/C=C/C(=O)Nc4nccs4)OC3C1O2 (stereo not drawn)", "endpoint": "MIC", "assayValue": "> 200 µg/mL"}
{"compound": "[C-]#[N+]C12CC3(/C=C/C(=O)OCC(=O)c4ccc(C)cc4)OC3C1O2 (stereo not drawn)", "endpoint": "MIC", "assayValue": "> 100 µg/mL"}
{"compound": "[C-]#[N+]C12CC3(/C=C/C(=O)OCC(=O)c4cccc(OC)c4)OC3C1O2 (stereo not drawn)", "endpoint": "MIC", "assayValue": "> 100 µg/mL"}
{"compound": "[C-]#[N+]C12CC3(/C=C/C(=O)N[C@@H](CCC(=O)OC)C(=O)OC)OC3C1O2 (stereo partly drawn)", "endpoint": "MIC", "assayValue": "> 200 µg/mL"}
{"compound": "[C-]#[N+]C12CC3(/C=C/C(=O)Nc4ccccc4O)OC3C1O2 (stereo not drawn)", "endpoint": "MIC", "assayValue": "> 200 µg/mL"}
{"compound": "[C-]#[N+]C12CC3(/C=C/C(=O)Nc4ccccc4OC)OC3C1O2 (stereo not drawn)", "endpoint": "MIC", "assayValue": "> 200 µg/mL"}
{"compound": "[C-]#[N+]C12CC3(/C=C/C(=O)Nc4ccc(C(=O)c5ccccc5)cc4)OC3C1O2 (stereo not drawn)", "endpoint": "MIC", "assayValue": "> 200 µg/mL"}
{"compound": "[C-]#[N+]C12CC3(/C=C/C(=O)Nc4ccc(OCCC)cc4)OC3C1O2 (stereo not drawn)", "endpoint": "MIC", "assayValue": "> 200 µg/mL"}
{"compound": "[C-]#[N+]C12CC3(/C=C/C(=O)OCC)OC3C1O2 (stereo not drawn) [Compound No. 2, ethyl β-substituted acrylate]", "endpoint": "MIC", "assayValue": "> 200 µg/mL"}
{"compound": "[C-]#[N+]C12CC3(/C=C/C(=O)OCC(=O)c4ccc(Br)cc4)OC3C1O2 (stereo not drawn) [Compound No. 4, p-bromophenacylβ-substituted acrylate]", "endpoint": "MIC", "assayValue": "> 100 µg/mL"}
{"compound": "[C-]#[N+]C12CC3(/C=C/C(=O)Nc4ccc(C(C)=O)cc4)OC3C1O2 (stereo not drawn)", "endpoint": "MIC", "assayValue": "> 200 µg/mL"}
{"compound": "[C-]#[N+]C12CC3(/C=C/C(=O)Nc4ccc(F)cc4)OC3C1O2 (stereo not drawn)", "endpoint": "MIC", "assayValue": "> 200 µg/mL"}
{"compound": "[C-]#[N+]C12CC3(/C=C/C(=O)NC4C(=O)N5C(C(=O)OCC(=O)c6ccc(Br)cc6)=C(C)CSC45)OC3C1O2 (stereo not drawn)", "endpoint": "MIC", "assayValue": "> 100 µg/mL"}
{"compound": "[C-]#[N+]C12CC3(/C=C/C(=O)NOCc4ccccc4)OC3C1O2 (stereo not drawn)", "endpoint": "MIC", "assayValue": "> 200 µg/mL"}
